Give measured inhibition at 1 µM for each item. Keep answers brief.
- Test system: PC-3
- experimentSummary: SRB assay, inhibition of tumor cell growth at 1 µM (Example 61)
- Assay type: cell-based
- assaySetup: Homo sapiens, 48 hours

Example compounds with recorded inhibition at 1 µM:
compound	inhibition at 1 µM
O=c1c(NCCCCCCOc2cccnc2)c(Nc2ccncc2)c1=O [SQ-16]	> 20%
Cc1ccc(OCCCCCCNc2c(Nc3ccncc3)c(=O)c2=O)cc1 [SQ-13]	> 50%
O=c1c(NCCCCCCCOc2ccc(Cl)cc2)c(Nc2ccncc2)c1=O [SQ-11A]	> 20%

Dear colleague, could you send me inhibition at 1 µM for each of the items below? Thanks.
1. Cc1ccc(OCCCCCCNc2c(Nc3cccnc3)c(=O)c2=O)cc1 [SQ-4]
2. O=c1c(NCCc2ccc(Oc3ccccc3)cc2)c(Nc2ccncc2)c1=O [SQ-17]

Response given:
["> 50%", "> 50%"]

----------
- Tested on: A-549
- experimentSummary: IC50 determination by SRB assay (Example 62)
- Format: cell-based
- assaySetup: Homo sapiens, A549
- Protocol: 3,000-15,000 cells/well were exposed to the test compounds at a concentration of 1 µM for 48 hours, and cytotoxicty was measured using the SRB assay according to Shekan et al (J Natl Cancer Inst (1990) 82, 1107-112). […] The bound dye was solubilized with 10 mM Trizma base and the absorbance read at OD570. Inhibitory activity of the compounds was calculated as % inhibition compared to cells treated with the solvent (DMSO). […]
pIC50: −log10 of the molar value.
propertyMeasured: pIC50

Example compounds with recorded pIC50:
givenSmiles	pIC50
O=c1c(NCCCCCCOc2ccccc2)c(Nc2ccncc2)c1=O	> 5.70
Cc1ccc(OCCCCCCNc2c(Nc3cccnc3)c(=O)c2=O)cc1	> 6.30
O=c1c(NCCCCCCOc2ccc(OCCN3CCOCC3)cc2)c(Nc2cccnc2)c1=O	> 7.00

Dear colleague, could you send me pIC50 for each of the items below? Thanks.
1. O=c1c(NCCCCCCOc2ccccc2)c(Nc2cccnc2)c1=O
2. O=c1c(NCCCCCCOc2ccc(OCCN3CCOCC3)cc2)c(Nc2ccncc2)c1=O
3. O=c1c(NCCCCCCSc2ccc(Cl)cc2)c(Nc2ccncc2)c1=O

Response given:
1: > 6.30; 2: > 7.70; 3: > 5.70

----------
Give measured inhibition at 1 µM for each item. Keep answers brief.
- System: PC-3
- experimentSummary: SRB assay, inhibition of tumor cell growth at 1 µM (Example 61)
- Assay type: cell-based
- assaySetup: Homo sapiens, 48 hours

Example molecules with recorded inhibition at 1 µM:
givenSmiles	inhibition at 1 µM
O=c1c(NCc2cccc(Oc3ccc(Cl)cc3)c2)c(Nc2cccnc2)c1=O	0%
O=c1c(NCCCCCCNc2ccc(Cl)cc2)c(Nc2cccnc2)c1=O	> 50%
O=c1c(NCc2ccc(Oc3ccc(Cl)cc3)cc2)c(Nc2cccnc2)c1=O	> 20%

Dear colleague, could you send me inhibition at 1 µM for each of the items below? Thanks.
1. O=c1c(NCCCCCCOc2ccc(Cl)cc2)c(Nc2cccnc2)c1=O
2. O=c1c(NCCCCCCOc2ccc(C(F)(F)F)cc2)c(Nc2ccncc2)c1=O
3. N#Cc1ccc(OCCCCCCNc2c(Nc3ccncc3)c(=O)c2=O)cc1
4. O=c1c(NCCCCCCCc2ccccc2)c(Nc2ccncc2)c1=O

Response given:
> 50%
> 50%
> 5%
> 50%

----------
- Test system: SW-620
- experimentSummary: SRB assay, inhibition of tumor cell growth at 1 µM (Example 61)
- Assay type: cell-based
- assaySetup: Homo sapiens, 48 hours
propertyMeasured: inhibition at 1 µM

Example molecules with recorded inhibition at 1 µM:
molecule	reading
Cc1ccc(OCCCCCCNc2c(Nc3cccnc3)c(=O)c2=O)cc1 [SQ-4]	> 50%
O=c1c(NCCCCCCCOc2ccc(Cl)cc2)c(Nc2ccncc2)c1=O [SQ-11A]	> 50%
COc1ccc(OCCCCCCNc2c(Nc3ccncc3)c(=O)c2=O)cc1 [SQ-14]	> 20%
O=c1c(NCCCCCCCc2ccccc2)c(Nc2ccncc2)c1=O [SQ-22]	> 50%

Dear colleague, could you send me inhibition at 1 µM for each of the items below? Thanks.
1. O=c1c(NCCCCCCOc2ccccc2)c(Nc2cccnc2)c1=O [SQ-3]
2. O=c1c(NCCCCCCOc2ccc(Cl)cc2)c(Nc2ccncc2)c1=O [SQ-7B]
3. O=c1c(NCCCCCCNc2ccc(Cl)cc2)c(Nc2cccnc2)c1=O [SQ-26]
4. O=c1c(NCCCCCCOc2ccc(C(F)(F)F)cc2)c(Nc2ccncc2)c1=O [SQ-18]
5. O=c1c(NCCCCCOc2ccc(Cl)cc2)c(Nc2cccnc2)c1=O [SQ-2]

Response given:
["> 50%", "> 50%", "> 20%", "> 20%", "> 50%"]

----------
Give measured IC50 for each item. Keep answers brief.
- Tested on: PC-3
- experimentSummary: IC50 determination by SRB assay (Example 62)
- Assay type: cell-based
- assaySetup: Homo sapiens
- Method: 3,000-15,000 cells/well were exposed to the test compounds at a concentration of 1 µM for 48 hours, and cytotoxicty was measured using the SRB assay according to Shekan et al (J Natl Cancer Inst (1990) 82, 1107-112). […] The bound dye was solubilized with 10 mM Trizma base and the absorbance read at OD570. Inhibitory activity of the compounds was calculated as % inhibition compared to cells treated with the solvent (DMSO). […]

Dear colleague, could you send me IC50 for each of the items below? Thanks.
1. O=c1c(NCCc2ccc(Oc3ccc(Cl)cc3)cc2)c(Nc2ccncc2)c1=O [SQ-20]
2. O=c1c(NCCC2CCN(Cc3ccccc3)CC2)c(Nc2ccncc2)c1=O [SQ-38]
3. O=c1c(NCCc2ccc(Oc3ccc(Cl)cc3)cc2)c(Nc2cccnc2)c1=O [SQ-6]
4. O=c1c(NCCCCCCOc2ccc(CN3CCOCC3)cc2)c(Nc2cccnc2)c1=O [SQ-39]
5. O=c1c(NCCC2CCN(Cc3ccccc3)CC2)c(Nc2cccnc2)c1=O [SQ-37]
6. O=c1c(NCc2cccc(COc3ccc(Cl)cc3)c2)c(Nc2cccnc2)c1=O [SQ-35]
7. O=c1c(NCCCCCCOc2ccc(OCCN3CCOCC3)cc2)c(Nc2cccnc2)c1=O [SQ-24]

Response given:
["< 500 nM", "< 10000 nM", "< 500 nM", "< 100 nM", "< 10000 nM", "> 10000 nM", "< 100 nM"]

Dear colleague, could you send me IC50 for each of the items below? Thanks.
1. O=c1c(NCCCCCCOc2ccc(OCCN3CCOCC3)cc2)c(Nc2ccncc2)c1=O [SQ-23]
2. O=c1c(NCCCCCCOc2cccnc2)c(Nc2ccncc2)c1=O [SQ-16]
3. O=c1c(NCCCCCCCc2ccccc2)c(Nc2ccncc2)c1=O [SQ-22]

Response given:
1: < 20 nM; 2: < 500 nM; 3: < 20 nM

----------
Give measured inhibition at 1 µM for each item. Keep answers brief.
- System: PC-3
- experimentSummary: SRB assay, inhibition of tumor cell growth at 1 µM (Example 61)
- Type: cell-based
- assaySetup: Homo sapiens, 48 hours

Example molecules with recorded inhibition at 1 µM:
molecule	inhibition at 1 µM
O=c1c(NCCCCCCCOc2ccccc2)c(Nc2ccncc2)c1=O [SQ-11B]	> 50%
O=c1c(NCCCCCCNc2ccc(Cl)cc2)c(Nc2ccncc2)c1=O [SQ-25]	> 50%
O=c1c(NCc2ccc(COc3ccc(Cl)cc3)cc2)c(Nc2cccnc2)c1=O [SQ-32]	> 50%
O=c1c(NCCCCCCCCOc2ccc(Cl)cc2)c(Nc2ccncc2)c1=O [SQ-9]	> 50%

Okay, now this molecule:
Challenge: Query inhibition at 1 µM on PC-3 for O=c1c(NCCCCCCOc2ccccc2)c(Nc2ccncc2)c1=O [SQ-12]
Response given: > 50%

----------
Give measured inhibition at 1 µM for each item. Keep answers brief.
- Test system: SW-620
- experimentSummary: SRB assay, inhibition of tumor cell growth at 1 µM (Example 61)
- Assay type: cell-based
- assaySetup: Homo sapiens, 48 hours

Example compounds with recorded inhibition at 1 µM:
compound	inhibition at 1 µM
O=c1c(NCCCCCCCCOc2ccc(Cl)cc2)c(Nc2ccncc2)c1=O [SQ-9]	> 50%
O=c1c(NCCc2ccc(Oc3ccccc3)cc2)c(Nc2ccncc2)c1=O [SQ-17]	> 20%
O=c1c(NCCCCCCOc2ccc(CN3CCOCC3)cc2)c(Nc2cccnc2)c1=O [SQ-39]	> 20%

Dear colleague, could you send me inhibition at 1 µM for each of the items below? Thanks.
1. O=c1c(NCCCCCCSc2ccc(Cl)cc2)c(Nc2ccncc2)c1=O [SQ-27]
2. O=c1c(NCCCCCCCOc2ccccc2)c(Nc2ccncc2)c1=O [SQ-11B]
3. Cc1ccc(OCCCCCCNc2c(Nc3ccncc3)c(=O)c2=O)cc1 [SQ-13]
4. O=c1c(NCc2ccc(Oc3ccc(Cl)cc3)cc2)c(Nc2cccnc2)c1=O [SQ-30]

Response given:
1. > 20%
2. > 50%
3. > 20%
4. > 20%
